molecular target: Dihydrofolate reductase (Homo sapiens, UniProt P00374); test: Inhibition of human DHFR relative to control; conditions: concentration not given here
Measured inhibition, listed per entry.
Endpoint label: inhibition (%)

- CCc1c(Sc2c(Cl)cccc2Cl)[nH]c2nc(N)nc(N)c12: 30
- CCc1c(Sc2cccc(OC)c2)[nH]c2nc(N)nc(N)c12: 35
- CCc1c(Sc2ccc(Cl)cc2)[nH]c2nc(N)nc(N)c12: 36
- CCc1c(Sc2cccc(Cl)c2)[nH]c2nc(N)nc(N)c12: 30

----------
test: Selectivity ratio of IC50 for rat liver DHFR to IC50 for Pneumocystis carinii DHFR
Could you mark each record Satisfied if its Ratio IC50 falls strictly under 0.4, and Not satisfied if it equals or exceeds it?

* CCc1c(Sc2ccc(Cl)cc2)[nH]c2nc(N)nc(N)c12 | Not satisfied
* CCc1c(Sc2cccc(Cl)c2)[nH]c2nc(N)nc(N)c12 | Not satisfied
* Cc1c(Sc2ccc(Cl)c(Cl)c2)[nH]c2nc(N)nc(N)c12 | Not satisfied
* CCc1c(Sc2c(Cl)cccc2Cl)[nH]c2nc(N)nc(N)c12 | Satisfied
* CCc1c(Sc2cccc(OC)c2)[nH]c2nc(N)nc(N)c12 | Not satisfied
* Cc1c(Sc2ccc3ccccc3c2)[nH]c2nc(N)nc(N)c12 | Satisfied
* CCc1c(Sc2ccc(Cl)cc2Cl)[nH]c2nc(N)nc(N)c12 | Satisfied

----------
test: Selectivity ratio of IC50 for human DHFR to IC50 for Escherichia coli DHFR
Endpoint label: Ratio IC50

- CCc1c(Sc2ccc(Br)cc2)[nH]c2nc(N)nc(N)c12: 19.3
- CCc1c(Sc2ccc([N+](=O)[O-])cc2)[nH]c2nc(N)nc(N)c12: 64.4
- CCc1c(Sc2ccc(Cl)cc2Cl)[nH]c2nc(N)nc(N)c12: 10

----------
Target: Bifunctional dihydrofolate reductase-thymidylate synthase (Toxoplasma gondii, UniProt Q07422)
Sequence (Q07422 whole entry): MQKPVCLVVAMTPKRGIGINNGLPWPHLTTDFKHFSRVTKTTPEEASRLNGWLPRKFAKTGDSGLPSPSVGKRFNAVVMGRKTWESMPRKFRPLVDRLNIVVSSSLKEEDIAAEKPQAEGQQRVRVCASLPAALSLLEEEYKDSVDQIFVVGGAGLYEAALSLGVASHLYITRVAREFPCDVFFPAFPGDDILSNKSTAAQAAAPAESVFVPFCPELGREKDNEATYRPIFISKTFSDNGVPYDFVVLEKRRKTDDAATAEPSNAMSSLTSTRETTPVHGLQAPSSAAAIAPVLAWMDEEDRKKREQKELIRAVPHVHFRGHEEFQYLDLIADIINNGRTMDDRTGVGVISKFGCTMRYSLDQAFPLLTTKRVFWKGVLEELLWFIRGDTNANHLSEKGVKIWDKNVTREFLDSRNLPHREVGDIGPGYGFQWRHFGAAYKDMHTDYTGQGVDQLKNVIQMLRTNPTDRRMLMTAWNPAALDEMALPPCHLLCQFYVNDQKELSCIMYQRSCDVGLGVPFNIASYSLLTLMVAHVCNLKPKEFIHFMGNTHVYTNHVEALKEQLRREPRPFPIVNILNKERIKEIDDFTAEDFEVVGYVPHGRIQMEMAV
Endpoint label: IC50 (nM)

- CCc1c(Sc2ccc(Cl)cc2Cl)[nH]c2nc(N)nc(N)c12: 220
- CCc1c(Sc2ccc(Br)cc2)[nH]c2nc(N)nc(N)c12: 11600
- Cc1c(Sc2ccc(Cl)c(Cl)c2)[nH]c2nc(N)nc(N)c12: 20000
- CCc1c(Sc2cccc(OC)c2)[nH]c2nc(N)nc(N)c12: 1090
- CCc1c(Sc2ccc(OC)cc2)[nH]c2nc(N)nc(N)c12: 4620
- CCc1c(Sc2ccc3ccccc3c2)[nH]c2nc(N)nc(N)c12: 5120
- CCc1c(Sc2c(C)cccc2C)[nH]c2nc(N)nc(N)c12: 7100
- CCc1c(Sc2ccc([N+](=O)[O-])cc2)[nH]c2nc(N)nc(N)c12: 320
- CCc1c(Sc2c(Cl)cccc2Cl)[nH]c2nc(N)nc(N)c12: 3800
- CCc1c(Sc2cc(OC)ccc2OC)[nH]c2nc(N)nc(N)c12: 120
- CCc1c(Sc2cccc3ccccc23)[nH]c2nc(N)nc(N)c12: 3150
- Cc1c(Sc2ccc3ccccc3c2)[nH]c2nc(N)nc(N)c12: 160
- CCc1c(Sc2ccc(Cl)cc2)[nH]c2nc(N)nc(N)c12: 1540
- CCc1c(Sc2ccccc2)[nH]c2nc(N)nc(N)c12: 180
- CCc1c(Sc2cccc(Cl)c2)[nH]c2nc(N)nc(N)c12: 500

----------
Measured Ratio IC50, listed per entry.
assay: Selectivity ratio of IC50 for rat liver DHFR to IC50 for Mycobacterium avium DHFR
Endpoint label: Ratio IC50

* CCc1c(Sc2cccc(OC)c2)[nH]c2nc(N)nc(N)c12 | 40.5
* CCc1c(Sc2ccc(Cl)cc2Cl)[nH]c2nc(N)nc(N)c12 | 3.3
* Cc1c(Sc2ccc(Cl)c(Cl)c2)[nH]c2nc(N)nc(N)c12 | 5.8
* CCc1c(Sc2ccc(Cl)cc2)[nH]c2nc(N)nc(N)c12 | 7.8
* CCc1c(Sc2ccc([N+](=O)[O-])cc2)[nH]c2nc(N)nc(N)c12 | 8.6
* CCc1c(Sc2ccc(Br)cc2)[nH]c2nc(N)nc(N)c12 | 1.4
* CCc1c(Sc2c(Cl)cccc2Cl)[nH]c2nc(N)nc(N)c12 | 0.33
* Cc1c(Sc2ccc3ccccc3c2)[nH]c2nc(N)nc(N)c12 | 6.5
* CCc1c(Sc2cccc(Cl)c2)[nH]c2nc(N)nc(N)c12 | 15.1

----------
target: Dihydrofolate reductase (Homo sapiens, UniProt P00374)
pIC50: −log10 of the molar value.
Endpoint label: pIC50

• CCc1c(Sc2cccc(OC)c2)[nH]c2nc(N)nc(N)c12 = < 4.49
• CCc1c(Sc2cccc(Cl)c2)[nH]c2nc(N)nc(N)c12 = < 4.51
• CCc1c(Sc2ccc(Cl)cc2)[nH]c2nc(N)nc(N)c12 = < 4.51
• CCc1c(Sc2c(Cl)cccc2Cl)[nH]c2nc(N)nc(N)c12 = < 4.55

----------
Measured pIC50, listed per entry.
target: Dihydrofolate reductase (Rattus norvegicus)
pIC50: −log10 of the molar value.
Endpoint label: pIC50

• CCc1c(Sc2ccc(Br)cc2)[nH]c2nc(N)nc(N)c12 = 5.00
• CCc1c(Sc2ccc3ccccc3c2)[nH]c2nc(N)nc(N)c12 = 5.06
• CCc1c(Sc2c(C)cccc2C)[nH]c2nc(N)nc(N)c12 = 5.00
